From: a protein production outcome set (Wang et al. 2014)

Test: label from the status in PepcDB records

query_sequence | protein production
MTEVAHTASGSTNTMDREGLPVAETTCAPGLPLWARPEARTALGDTLRPGGFSLTDRLATLAGVHPGWRVLDVGCGTGATVLHLRQRYGASAFGCDRSTSLTPGSNNHKGLPVIAADAANLPFADGSMKMVFCECVLSLLVKPLEVLRGLRRLLVPGGLLGVSDLYLRGEGHARVTEGSCLAWQATRMRIESLLHEAGFALHTFEDHSPLLRETAARLALSGALHGGAMNCGERAFPSRDACRRCSPEGIAAPPQATPCSMTECSFSPPATRAVTEQVARPGYFLLLAQSLKGTRED | failed
MVTTRKPLRAAIIGLGRLGERHARHLVNKIQGVKLVAACALDSNQLEWAKNELGVETTYTNYKDMIDTENIDAIFIVAPTPFHPEMTIYAMNAGLNVFCEKPLGLDFNEVDEMAKVIKSHPNQIFQSGFMRRYDDSYRYAKKIVDNGDIGKIIYMRGYGIDPISGMESFTKFATEADSGGIFVDMNIHDIDLIRWFTGQDPVQAYGLTSNIAAPQLADIGEFETGVAQLKMSDGVIATLIGGRHAAHGNQVELEVMGSNGWVRIGEHPDLNRVTVFNDQGVVRPSLQSFGERFDTAFTDEVQDFVNNVIVGKQPEVTVDDGIKALKIAKACQQSANIGKLVDIQL | failed
